B1: VENTX (parent)
chain: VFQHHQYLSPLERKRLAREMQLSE

Variants of: B1
Assay: protein stability index of a GFP-peptide fusion (GPS, HEK-293T) (PSI 1-6); higher = more stable;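 also: lentivirally expressed fusions sorted by FACS into six bins by GFP to DsRed ratio, PSI derived from sequencing read proportions per bin multiplied by bin number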
Details: c terminus: a fixed tail appended
QUANTITY: protein stability index
The response must contain the number and no unit.

In: What protein stability index value was documented for this variant, VFQHHQYLSPLERKRLAREMQLSW ?
Out: 2.76

In: Try the variant AFQHHQYLSPLERKRLAREMQLSE
Out: 2.28

In: Try the variant VFQHLQYLSPLERKRLAREMQLSE
Out: 2.42

In: Try the variant VFQHHQYLSPLERKRLAREDQLSE
Out: 3.1

In: Try the variant VFQHHQYLSPCERKRLAREMQLSE
Out: 2.4

In: Try the variant VFQHHQYLSPLERKRLAREMQLQE
Out: 3.04

In: Try the variant VFQHHQYNSPLERKRLAREMQLSE
Out: 2.72

In: Try the variant VFQHHQYLSPLERKRLARDMQLSE
Out: 2.67

In: Try the variant VFQHHQYLSPLERKRLAGEMQLSE
Out: 2.68

In: Try the variant VFQHHQYLSPLERKRHAREMQLSE
Out: 2.82

In: Try the variant VFQHHQYLSPLERKRLPREMQLSE
Out: 2.98

In: Try the variant VFQHHQYWSPLERKRLAREMQLSE
Out: 1.83

In: Try the variant VFQHHQYLSPLERKRIAREMQLSE
Out: 2.71

In: Try the variant VFQHHQYLSPLQRKRLAREMQLSE
Out: 2.33

In: Try the variant VFQHHQYLSPLERKRLAREMQSSE
Out: 2.56

In: Try the variant VFQHHQYLSPLERKRLAREMQLSR
Out: 1.95

In: Try the variant VMQHHQYLSPLERKRLAREMQLSE
Out: 3.1
